Recorded clearance, one value per entry.
assay: Clearance in Sprague-Dawley rat at 1 mg/kg; assay type: ADME, organism-based; set-up: dose 1 mg/kg; settings: in vivo
Give the value, in units of mL/min/kg, as a plain number.

Previously resolved entries follow.
>  <COMPOUND>
N#Cc1ccc(CNC(=O)N(c2cccc(F)c2)C2CCN(CCC3(c4cccc(F)c4)CCN(C(=O)c4cc(S(=O)(=O)N5CC[C@H](O)C5)c(F)cc4Cl)CC3)CC2)cc1

>  <READOUT_TYPE>
clearance

>  <RESULT_NUMBER>
24

$$$$
>  <COMPOUND>
CC(CO)(CO)C(=O)N1CCC(CCN2CCC(N(C(=O)NCc3ccc(C#N)cc3)c3cccc(F)c3)CC2)(c2cccc(F)c2)CC1

>  <READOUT_TYPE>
clearance

>  <RESULT_NUMBER>
26

$$$$
>  <COMPOUND>
Cn1cc(Cl)c(C(=O)N2CCC(CCN3CCC(N(C(=O)NCc4ccc(C#N)cc4)c4cccc(F)c4)CC3)(c3cccc(F)c3)CC2)n1

>  <READOUT_TYPE>
clearance

>  <RESULT_NUMBER>
25

$$$$

Which clearance is listed for N#Cc1ccc(CNC(=O)N(c2cccc(F)c2)C2CCN(CCC3(c4cccc(F)c4)CCN(C(=O)c4cccnc4F)CC3)CC2)cc1 ?
22.5

Which clearance is listed for CC(C)(C)C(=O)N1CCC(CCN2CCC(N(C(=O)NCc3ccc(C#N)cc3)c3cccc(F)c3)CC2)(c2cccc(F)c2)CC1 ?
10

Which clearance is listed for N#Cc1ccc(CNC(=O)N(c2cccc(F)c2)C2CCN(CCC3(c4cccc(F)c4)CCN(C(=O)c4c(F)ccc(S(N)(=O)=O)c4F)CC3)CC2)cc1 ?
25

Which clearance is listed for N#Cc1ccc(CNC(=O)N(c2cccc(F)c2)C2CCN(CCC3(c4cccc(F)c4)CCN(C(=O)c4cn[nH]c4C(F)(F)F)CC3)CC2)cc1 ?
13

Which clearance is listed for N#Cc1ccc(CNC(=O)N(c2cccc(F)c2)C2CCN(CCC3(c4cccc(F)c4)CCN(C(=O)C4CCOCC4)CC3)CC2)cc1 ?
25

Which clearance is listed for N#Cc1ccc(CNC(=O)N(c2cccc(F)c2)C2CCN(CCC3(c4cccc(F)c4)CCN(C(=O)c4cc(S(=O)(=O)N5CCCC5)c(F)cc4Cl)CC3)CC2)cc1 ?
9.5

Which clearance is listed for CC(C)(CO)C(=O)N1CCC(CCN2CCC(N(C(=O)NCc3ccc(C#N)cc3)c3cccc(F)c3)CC2)(c2cccc(F)c2)CC1 ?
22
